# assay_procedure: UV absorbance spectrum in solution (λmax, λcrit, extinction coefficients)
# Format: physicochemical
# condition_details: molar extinction coefficient; in M-1 cm-1 (unit assumed)
readout: ε
Just the number, please, no unit attached.

// solved cases for ε follow
>>> print(df.to_string())
                                   compound  reported
0  O=C(/C(=C\N1CCc2ccc(C(F)(F)F)cc21)c1ccccc1)C(F)(F)F     31379
1  O=C(/C(=C\N1CCCc2ccccc21)c1ccccc1)C(F)(F)F     26848
2  COC(=O)c1ccc2c(c1)CCN2C=C(C(=O)c1c(C)cc(C)cc1C)c1ccccc1     60650
3  COC(=O)c1ccc2c(c1)CCN2/C=C(/C(=O)c1ccc(C(C)(C)C)cc1)c1ccccc1     44238
4  COC(=O)c1ccc2c(c1)CCN2/C=C(/C(=O)c1ccc(C)cc1)c1ccccc1     45689

Report ε, nothing else, for this compound: `COC(=O)c1ccc2c(c1)CCN2/C=C(\C(=O)C(F)(F)F)c1ccccc1`
46134

Report ε, nothing else, for this compound: CCCCC(CC)COC(=O)c1ccc2c(c1)CCN2/C=C(/C(=O)C(C)(C)C)c1ccc(C#N)cc1 (centres unmarked)
50502

Report ε, nothing else, for this compound: `COC(=O)c1ccc2c(c1)CCN2/C=C(/C(=O)c1cccc(C)c1)c1ccccc1`
47867

---

# assay_procedure: UV absorbance spectrum in solution (λmax, λcrit, extinction coefficients)
# Assay type: physicochemical
// λmax lookup, one value per entry
Entry rule: numbers only, all in nm.

compound	unit_text	λmax
O=C(/C(=C\N1CCc2cc(C(F)(F)F)ccc21)c1ccccc1)C(F)(F)F [Compound 235]	nm	361
COC(=O)c1ccc2c(c1)CCN2/C=C(\C(=O)C(F)(F)F)c1ccccc1 [Compound 201]	nm	373
Cc1cc(C)c(C(=O)/C(=C\N2CCc3cc(C(=O)OCCCOC(=O)c4ccc5c(c4)CCN5/C=C(/C(=O)c4c(C)cc(C)cc4C)c4ccccc4)ccc32)c2ccccc2)c(C)c1 [Compound 307]	nm	370
O=C(/C(=C\N1CCc2ccc(C(F)(F)F)cc21)c1ccccc1)C(F)(F)F [Compound 236]	nm	364
O=C(/C(=C\N1CCCCc2ccccc21)c1ccccc1)C(F)(F)F [Compound 217]	nm	324

Report λmax, nothing else, for this compound: CN(/C=C(\C(=O)C(F)(F)F)c1ccccc1)c1ccc([N+](=O)[O-])cc1 [Compound 219]
376

Report λmax, nothing else, for this compound: CCN(/C=C(/C(=O)C(=O)N(C)C)c1ccccc1)CC [Compound 261]
310

Report λmax, nothing else, for this compound: CCN(/C=C(/C(=O)c1c(C)cc(C)cc1C)c1ccccc1)c1ccccc1 [Compound 255]
323

Report λmax, nothing else, for this compound: Cc1ccc2c(c1)CCN2/C=C(\C(=O)C(F)(F)F)c1ccccc1 [Compound 205]
371

Report λmax, nothing else, for this compound: CCOC(=O)C(=O)/C(=C/N1CCc2cc(C(=O)OC)ccc21)c1ccccc1 [Compound 256]
372

---

# assay_procedure: % transmission spectrum of 0.1% solution (breakthrough, steepness)
# Assay type: physicochemical
# condition_details: value in nm where transmittance increases beyond 1%; 0.1% solution
# From the text: FIG. 2 is a is a graphical representation of the % transmission of compounds 142 and 143 measured in a 2 mm cuvette as 0.1% solutions in methanol (142 is the left most trace); […]
Decision: Breakthrough (1% T at 0.1%) >= 400 nm yields rule met, all other cases yield rule not met.

>>> print(df.to_string())
                                   compound  discrete_label
0  CC1(C)CN(/C=C(\C(=O)C(F)(F)F)c2ccccc2)c2ccccc21        rule met

We next turn to a different compound, shown below.
# bool: Breakthrough (1% T at 0.1%) of `COC(=O)c1ccc2c(c1)CCN2/C=C(/C(=O)c1ccc(C)cc1)c1ccccc1` >= 400 nm
rule met

Origin of the recorded values: patent US11512042B2
